meta.source: patent US9980943B2

- Tested on: α7 integrin (LacZ reporter in α7+/LacZ myotubes)
- experimental_protocol: Myotube α7 integrin FDG assay (Burkin assay in myotubes, 96-well)
- Format: cell-based, mouse
- reported_conditions: Mus musculus, Myotube; myotubes, 5 uM; read-out: Burkin Assay in Myotubes, α7 integrin LacZ reporter signal relative to DMSO
// FALSE strictly below 1 in fold induction at 5 µM; TRUE otherwise

Here are 4 compounds together with their reported answers.
compound | discrete_label
COc1ccc(-c2cc(COc3ccccc3)on2)cc1 | TRUE
COc1ccc(-n2c(C)c(C(C)=O)c3cc(OC(C)=O)ccc32)cc1 | TRUE
COc1nccc(NCc2ccccc2)c1C#N | TRUE
COc1ccc(N2CCN(C(=O)c3cc(C)on3)CC2)cc1 | TRUE

// next entry
API: above_or_equal(metric=fold induction at 5 µM, cutoff=1) for item CCOC(=O)C1CCCN(C(=O)CNS(=O)(=O)c2ccc(Br)s2)C1 (stereo not drawn)
FALSE

---

- Test system: β-galactosidase in CMV-LacZ C2C12 myotubes
- experimental_protocol: CMV-LacZ secondary screen in C2C12 myotubes (β-Gal stabilizing assay)
- Format: cell-based, mouse
- reported_conditions: 5 uM; SU9516 analogs, C2C12 CMV-LacZ, N=2
Each record is given 1 if its reported CMV-LACZ in Myotubes, value relative to DMSO is strictly below 1. Records at or above 1 are given -1.

Past entries and their recorded results:
molecule | discrete_label
COc1ccc(C(=O)/C=C2/C(=O)Nc3ccccc32)cc1 [MLS001163848-01] | -1
O=C1Nc2ccccc2/C1=C/c1c[nH]cn1 [MLS000327715-01] | -1
CCO/C(C)=C1\C(=O)Nc2ccccc21 [MLS000554109-01] | -1

Given the entry C=CCOc1ccc(C(=O)/C=C2/C(=O)Nc3ccccc32)cc1 [MLS001214264-01] , would its reported CMV-LACZ in Myotubes, value relative to DMSO be below 1?
1

Please let me know if Cc1[nH]c(/C=C2\C(=O)Nc3ccc(S(=O)(=O)Cc4c(Cl)cccc4Cl)cc32)c(C)c1C(=O)C1CCCN1CN1CCCC1 (stereo not drawn) [NCGC00242500-01] shows CMV-LACZ in Myotubes, value relative to DMSO below 1.
-1

Take the molecule O=C1C(c2c(O)[nH]c3ccccc23)=Nc2ccccc21 [NCGC00179302-02] and say whether its CMV-LACZ in Myotubes, value relative to DMSO is less than 1.
-1

Confirm or reject: CMV-LACZ in Myotubes, value relative to DMSO of Cc1[nH]c(C=C2C(=O)Nc3ccccc32)c(C)c1CCC(=O)O [NCGC00241113-01] lies strictly below 1
1

Please state whether CMV-LACZ in Myotubes, value relative to DMSO is below 1 for Cc1ccc2c(c1)/C(=C/c1ccccc1C)C(=O)N2 [MLS001202402-01]
1

Determine if Cc1cc(C)c(/C=C2\C(=O)Nc3ccccc32)[nH]1 [NCGC00094381-03] shows CMV-LACZ in Myotubes, value relative to DMSO strictly lower than 1.
-1

Check if CMV-LACZ in Myotubes, value relative to DMSO falls below 1 for O=C(O)COc1ccccc1/C=C1\C(=O)Nc2ccc(Br)cc21 [MLS001196427-01] .
1

is_below(CMV-LACZ in Myotubes, value relative to DMSO, 1) for O=C1Nc2ccccc2/C1=C/c1ccc([N+](=O)[O-])cc1 [MLS001194544-01] ?
1

Answer whether the molecule CCn1c(O)c(C(C#N)=C2N=c3ccccc3=N2)c2ccccc21 [MLS000564846-01] has CMV-LACZ in Myotubes, value relative to DMSO strictly less than 1
-1

Lab note: CMV-LACZ in Myotubes, value relative to DMSO threshold 1. Does this molecule come in strictly under it? O=Nc1c(-c2c(O)[nH]c3ccccc23)[nH]c2ccccc12 [NCGC00015545-07]
1

Does the reported CMV-LACZ in Myotubes, value relative to DMSO of CCN(CC)CCNC(=O)c1c(C)[nH]c(/C=C2\C(=O)Nc3ccc(F)cc32)c1C [NCGC00164631-04] stay below 1?
1
